System: ScHof1
Test Method Notes: SPOT peptide array binding signal intensity (averaged, normalized) (arbitrary units (background-subtracted, floor 0; scale differs between SH3 domains)); higher = stronger binding of the SH3 domain to the peptide
Observable: SPOT peptide array binding signal intensity

Binder | Modifier | Value Reported
EAEEAAPQLPSRSSA | = | 4.25
KRNRLKILLPFLEQS | = | 1.5
RVTRKRPREPKSTND | = | 2.5
PSRRDSLSIPRAVDA | ≤ | 0
VNFRRIPTGPDSPPT | = | 0.5
RLSRLLLSLPPESFT | = | 1
DKKTKPTPPPKPSHL | = | 1.5
VPPPMQPPPIESSNL | ≤ | 0
SKAKRPKFLLDLQIK | ≤ | 0
QLLNPNRRAPRRPLS | ≤ | 0
EEEEEHPPLPARRKS | = | 4.25
AAAPKHAPPPVPNET | ≤ | 0
RRSKSLPITPKSIFN | ≤ | 0
APERAVPILPPRNNV | = | 32.5
KIRRSSLMIPNPQQF | ≤ | 0
